Cited source: patent US20230203096A1

assayProcedure: In vivo pharmacokinetics and brain exposure
conditionsUsed: mouse, plasma; mice, 10 mg/kg IV, 30 min; read-out: Plasma drug concentration
Square brackets hold non-standard residues; d marks the D form. Peptide text beside a SMILES is read from it. * marks the point of attachment. Cyclohexanoyl(1S,3S-3-NH2) = N[C@H]1CCC[C@H](C(=O)*)C1; Trp(5-OH) = N[C@@H](Cc1c[nH]c2ccc(O)cc12)C(=O)O; NH(4-morpholinophenyl) = c1cc(N2CCOCC2)ccc1N*; Bip = N[C@@H](Cc1ccc(-c2ccccc2)cc1)C(=O)O; hArg = N=C(N)NCCCC[C@H](N)C(=O)O
readoutType: level at 0.5 h (ng/mL)
// units = ng/mL; emit number, no label

N=C(N)NCCCC[C@H](NC(=O)[C@H](Cc1ccc(-c2ccccc2)cc1)NC(=O)[C@H](Cc1c[nH]c2ccc(O)cc12)NC(=O)[C@H]1CCC[C@H](N)C1)C(=O)NCC(=O)Nc1ccc(N2CCOCC2)cc1 [Compound 8] ({Cyclohexanoyl(1S,3S-3-NH2)}-[Trp(5-OH)][Bip][hArg]G-{NH(4-morpholinophenyl)}) yielded level at 0.5 h of 484

###

assayProcedure: In vivo pharmacokinetics and brain exposure
conditionsUsed: mouse, brain; mice, 10 mg/kg IV, 30 min; read-out: Brain concentration
Square brackets hold non-standard residues; d marks the D form. Peptide text beside a SMILES is read from it. * marks the point of attachment. Cyclohexanoyl(1S,3S-3-NH2) = N[C@H]1CCC[C@H](C(=O)*)C1; Trp(5-OH) = N[C@@H](Cc1c[nH]c2ccc(O)cc12)C(=O)O; NH(4-morpholinophenyl) = c1cc(N2CCOCC2)ccc1N*; Bip = N[C@@H](Cc1ccc(-c2ccccc2)cc1)C(=O)O; hArg = N=C(N)NCCCC[C@H](N)C(=O)O
readoutType: level at 0.5 h (ng/mL)
Kindly provide the numeric value in ng/mL only, without the unit symbol.

Field level at 0.5 h (entry N=C(N)NCCCC[C@H](NC(=O)[C@H](Cc1ccc(-c2ccccc2)cc1)NC(=O)[C@H](Cc1c[nH]c2ccc(O)cc12)NC(=O)[C@H]1CCC[C@H](N)C1)C(=O)NCC(=O)Nc1ccc(N2CCOCC2)cc1 [Compound 8] ({Cyclohexanoyl(1S,3S-3-NH2)}-[Trp(5-OH)][Bip][hArg]G-{NH(4-morpholinophenyl)}) ) reads 189

###

testedOn: ^13C^ε-Met-labeled EphA4-LBD (Homo sapiens, UniProt P54764, C204A)
Construct: His tag (N); made in house; host or cells: E. coli Rosetta-Gami B(DE3), pET15b
Sequence (P54764 29-209 C204A): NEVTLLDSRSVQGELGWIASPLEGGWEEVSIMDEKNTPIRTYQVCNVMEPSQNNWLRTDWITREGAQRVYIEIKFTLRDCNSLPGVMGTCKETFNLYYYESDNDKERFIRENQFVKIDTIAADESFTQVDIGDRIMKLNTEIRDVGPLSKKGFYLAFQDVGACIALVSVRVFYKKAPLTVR
assayProcedure: 2D [13C,1H] HSQC NMR chemical shift perturbation of Met resonances
Type: binding
conditionsUsed: protein 20 μM, 20 μM of each compound
Square brackets hold non-standard residues; d marks the D form. Peptide text beside a SMILES is read from it. * marks the point of attachment. Phe(4-(2-MeO-Ph)) = COc1ccccc1-c1ccc(C[C@H](N)C(=O)O)cc1; Cyclohexanoyl(1S,3S-3-NH2) = N[C@H]1CCC[C@H](C(=O)*)C1; Trp(5-OH) = N[C@@H](Cc1c[nH]c2ccc(O)cc12)C(=O)O; NHPh(4-CH2-morpholino) = c1cc(N*)ccc1CN1CCOCC1; hArg = N=C(N)NCCCC[C@H](N)C(=O)O; X2 = Fc1cc(N*)ccc1N1CCOCC1

compound	Δδ ^13C^ϵ/^1H^ϵ Met 164
COc1ccccc1-c1ccc(C[C@H](NC(=O)[C@H](Cc2c[nH]c3ccc(O)cc23)NC(=O)[C@H]2CCC[C@H](N)C2)C(=O)N[C@@H](CCCCNC(=N)N)C(=O)NCC(=O)Nc2ccc(N3CCOCC3)c(F)c2)cc1 [Compound 16] ({Cyclohexanoyl(1S,3S-3-NH2)}-[Trp(5-OH)][Phe(4-(2-MeO-Ph))][hArg]G-X2)	+ (0< + <0.1 ppm)
COc1ccccc1-c1ccc(C[C@H](NC(=O)[C@H](Cc2c[nH]c3ccc(O)cc23)NC(=O)[C@H]2CCC[C@H](N)C2)C(=O)N[C@@H](CCCCNC(=N)N)C(=O)NCC(=O)Nc2ccc(CN3CCOCC3)cc2)cc1 [Compound 2] ({Cyclohexanoyl(1S,3S-3-NH2)}-[Trp(5-OH)][Phe(4-(2-MeO-Ph))][hArg]G-{NHPh(4-CH2-morpholino)})	+ (0< + <0.1 ppm)

###

testedOn: recombinant EphA4 ligand binding domain (Homo sapiens, UniProt P54764, C204A)
Construct: His tag (N); made in house; host or cells: E. coli Rosetta-Gami B(DE3), pET15b
assayProcedure: Isothermal titration calorimetry (ITC) against EphA4-LBD
Square brackets hold non-standard residues; d marks the D form. Peptide text beside a SMILES is read from it. * marks the point of attachment. Phe(4-(2-MeO-Ph)) = COc1ccccc1-c1ccc(C[C@H](N)C(=O)O)cc1; Cyclohexanoyl(1S,3S-3-NH2) = N[C@H]1CCC[C@H](C(=O)*)C1; Trp(5-OMe) = COc1ccc2[nH]cc(C[C@H](N)C(=O)O)c2c1; Trp(5-OH) = N[C@@H](Cc1c[nH]c2ccc(O)cc12)C(=O)O; NHPh(4-CH2-morpholino) = c1cc(N*)ccc1CN1CCOCC1; Bip = N[C@@H](Cc1ccc(-c2ccccc2)cc1)C(=O)O; hArg = N=C(N)NCCCC[C@H](N)C(=O)O; X2 = Fc1cc(N*)ccc1N1CCOCC1; X3 = c1cc(N2CCNCC2)ccc1N*
Mark each entry Satisfied if its Kd sits below 100 nM, and Not satisfied for all others.

Sample answers from the record:
molecule	classAssignment
N=C(N)NCCCC[C@H](NC(=O)[C@H](Cc1ccc(-c2ccccc2)cc1)NC(=O)[C@H](Cc1c[nH]c2ccc(O)cc12)NC(=O)[C@H]1CCC[C@H](N)C1)C(=O)NCC(=O)Nc1ccc(N2CCNCC2)cc1 [Compound 10] ({Cyclohexanoyl(1S,3S-3-NH2)}-[Trp(5-OH)][Bip][hArg]G-X3)	Satisfied
COc1ccc2[nH]cc(C[C@H](NC(=O)[C@H]3CCC[C@H](N)C3)C(=O)N[C@@H](Cc3ccc(-c4ccccc4OC)cc3)C(=O)N[C@@H](CCCCNC(=N)N)C(=O)NCC(=O)Nc3ccc(CN4CCOCC4)cc3)c2c1 [Compound 5] ({Cyclohexanoyl(1S,3S-3-NH2)}-[Trp(5-OMe)][Phe(4-(2-MeO-Ph))][hArg]G-{NHPh(4-CH2-morpholino)})	Not satisfied
COc1ccccc1-c1ccc(C[C@H](NC(=O)[C@H](Cc2c[nH]c3ccc(O)cc23)NC(=O)[C@H]2CCC[C@H](N)C2)C(=O)N[C@@H](CCCCNC(=N)N)C(=O)NCC(=O)Nc2ccc(CN3CCOCC3)cc2)cc1 [Compound 2] ({Cyclohexanoyl(1S,3S-3-NH2)}-[Trp(5-OH)][Phe(4-(2-MeO-Ph))][hArg]G-{NHPh(4-CH2-morpholino)})	Satisfied

Q: Is Kd of COc1ccccc1-c1ccc(C[C@H](NC(=O)[C@H](Cc2c[nH]c3ccc(O)cc23)NC(=O)[C@H]2CCC[C@H](N)C2)C(=O)N[C@@H](CCCCNC(=N)N)C(=O)NCC(=O)Nc2ccc(N3CCOCC3)c(F)c2)cc1 [Compound 16] ({Cyclohexanoyl(1S,3S-3-NH2)}-[Trp(5-OH)][Phe(4-(2-MeO-Ph))][hArg]G-X2) strictly below 100 nM?
Result: Not satisfied

###

testedOn: ^13C^ε-Met-labeled EphA4-LBD (Homo sapiens, UniProt P54764, C204A)
Construct: His tag (N); made in house; host or cells: E. coli Rosetta-Gami B(DE3), pET15b
assayProcedure: 2D [13C,1H] HSQC NMR chemical shift perturbation of Met resonances
Assay type: binding
conditionsUsed: protein 20 μM, 20 μM of each compound
Square brackets hold non-standard residues; d marks the D form. Peptide text beside a SMILES is read from it. * marks the point of attachment. Cyclohexanoyl(1S,3S-3-NH2) = N[C@H]1CCC[C@H](C(=O)*)C1; Trp(5-OMe) = COc1ccc2[nH]cc(C[C@H](N)C(=O)O)c2c1; Trp(5-OH) = N[C@@H](Cc1c[nH]c2ccc(O)cc12)C(=O)O; NHPh(4-CH2-morpholino) = c1cc(N*)ccc1CN1CCOCC1; NH(4-morpholinophenyl) = c1cc(N2CCOCC2)ccc1N*; Bip = N[C@@H](Cc1ccc(-c2ccccc2)cc1)C(=O)O; hArg = N=C(N)NCCCC[C@H](N)C(=O)O; X3 = c1cc(N2CCNCC2)ccc1N*

compound	Δδ ^13C^ϵ/^1H^ϵ Met 164
N=C(N)NCCCC[C@H](NC(=O)[C@H](Cc1ccc(-c2ccccc2)cc1)NC(=O)[C@H](Cc1c[nH]c2ccc(O)cc12)NC(=O)[C@H]1CCC[C@H](N)C1)C(=O)NCC(=O)Nc1ccc(N2CCNCC2)cc1 [Compound 10] ({Cyclohexanoyl(1S,3S-3-NH2)}-[Trp(5-OH)][Bip][hArg]G-X3)	++++ (++++ >0.25 ppm)
N=C(N)NCCCC[C@H](NC(=O)[C@H](Cc1ccc(-c2ccccc2)cc1)NC(=O)[C@H](Cc1c[nH]c2ccc(O)cc12)NC(=O)[C@H]1CCC[C@H](N)C1)C(=O)NCC(=O)Nc1ccc(CN2CCOCC2)cc1 [Compound 9] ({Cyclohexanoyl(1S,3S-3-NH2)}-[Trp(5-OH)][Bip][hArg]G-{NHPh(4-CH2-morpholino)})	+++ (0.2< +++ <0.25)
COc1ccc2[nH]cc(C[C@H](NC(=O)[C@H]3CCC[C@H](N)C3)C(=O)N[C@@H](Cc3ccc(-c4ccccc4)cc3)C(=O)N[C@@H](CCCCNC(=N)N)C(=O)NCC(=O)Nc3ccc(CN4CCOCC4)cc3)c2c1 [Compound 4] ({Cyclohexanoyl(1S,3S-3-NH2)}-[Trp(5-OMe)][Bip][hArg]G-{NHPh(4-CH2-morpholino)})	+++ (0.2< +++ <0.25)
N=C(N)NCCCC[C@H](NC(=O)[C@H](Cc1ccc(-c2ccccc2)cc1)NC(=O)[C@H](Cc1c[nH]c2ccc(O)cc12)NC(=O)[C@H]1CCC[C@H](N)C1)C(=O)NCC(=O)Nc1ccc(N2CCOCC2)cc1 [Compound 8] ({Cyclohexanoyl(1S,3S-3-NH2)}-[Trp(5-OH)][Bip][hArg]G-{NH(4-morpholinophenyl)})	++++ (++++ >0.25 ppm)
